Target: T1, human BAFF (residues 82-285) (human, UniProt Q9Y275 82-285)
T1 construct: Coated on plates in the ELISAs; also used biotinylated or free in solution for phage sorting; also called BAFF82-285; BLyS82-285
T1 sequence (Q9Y275 82-285): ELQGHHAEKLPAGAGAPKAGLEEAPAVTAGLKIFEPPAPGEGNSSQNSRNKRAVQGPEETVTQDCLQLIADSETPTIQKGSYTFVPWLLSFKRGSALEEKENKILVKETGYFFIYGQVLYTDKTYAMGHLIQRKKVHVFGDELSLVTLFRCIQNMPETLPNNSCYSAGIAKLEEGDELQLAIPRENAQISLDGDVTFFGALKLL
Test: phage display selection on BAFF
Bridges are numbered along the chain shown (N, C = ends). Where no end group is shown, it is not given here.
Observable: binding result

Q. Report binding result for ECFDRLVRAWVPCTALT (disulfide 2-13 (inferred)) [SEQ ID NO 114] please.
A. binds

Q. Report binding result for ECFDRLVNLWVDCALLN (disulfide 2-13 (inferred)) [SEQ ID NO 108] please.
A. binds

Q. Report binding result for ECFDLLVRTWVPCQAIL (disulfide 2-13 (inferred)) [SEQ ID NO 71] please.
A. binds

Data credit: patent US20050163775A1
